Data credit: the supplement of paper PMC7393113

tested on: iBMDM (immortalised mouse bone-marrow-derived macrophages), LPS-stimulated; assay: mitochondrial superoxide (MitoSOX fluorescence) fold increase over unstimulated control; higher = more LPS-induced mitochondrial ROS (less inhibition); conditions: inhibitor concentration: 500 nM; LPS: 100 ng/ml; time after LPS: 2 h
Each entry below carries its recorded mitochondrial superoxide.

// known answers, use as guide
MOLECULE	mitochondrial superoxide
Cc1cnc(Nc2ccc(N3CCN(C)CC3)cc2)nc1Nc1cccc(S(=O)(=O)NC(C)(C)C)c1	1.51
CC[C@H](Nc1ncnc2[nH]cnc12)c1nc2cccc(F)c2c(=O)n1-c1ccccc1	1.4
CC(C)(C)c1cc(NC(=O)Nc2ccc(-c3cn4c(n3)sc3cc(OCCN5CCOCC5)ccc34)cc2)no1	1.19

Give iBMDM (immortalised mouse bone-marrow-derived macrophages), LPS-stimulated mitochondrial superoxide for CCC(=O)N1CCN(c2ccc(-n3c(=O)ccc4cnc5ccc(-c6cnc7ccccc7c6)cc5c43)cc2C(F)(F)F)CC1
1.24

Give iBMDM (immortalised mouse bone-marrow-derived macrophages), LPS-stimulated mitochondrial superoxide for NC1(c2ccc(-c3nc4ccn5c(=O)[nH]nc5c4cc3-c3ccccc3)cc2)CCC1
1.34

Give iBMDM (immortalised mouse bone-marrow-derived macrophages), LPS-stimulated mitochondrial superoxide for N#C/C(=C(/N)Sc1ccc(N)cc1)c1ccccc1C(F)(F)F
1.42

Give iBMDM (immortalised mouse bone-marrow-derived macrophages), LPS-stimulated mitochondrial superoxide for Cc1nc(NC(=O)N2CCC[C@H]2C(N)=O)sc1-c1ccnc(C(C)(C)C(F)(F)F)c1
1.46
